Molecular target: T1, human IGFBP3 (human, UniProt P17936 28-291)
T1 construct: Bought protein
T1 sequence (P17936 28-291 limits assumed): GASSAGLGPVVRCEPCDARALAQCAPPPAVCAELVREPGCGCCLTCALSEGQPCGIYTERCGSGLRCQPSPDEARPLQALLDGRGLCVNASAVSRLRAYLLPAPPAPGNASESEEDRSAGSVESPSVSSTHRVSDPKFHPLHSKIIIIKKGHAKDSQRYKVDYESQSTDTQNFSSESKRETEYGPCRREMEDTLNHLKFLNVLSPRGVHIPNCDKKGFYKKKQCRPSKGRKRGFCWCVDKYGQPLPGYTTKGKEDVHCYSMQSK
Assay: ELISA, scFv, secondary screening

| BINDER | binding result |
| --- | --- |
| C12 scFv (scFv, V domains shown, scFv as screened by ELISA) VH: QVQLVQSGAEVKKPGSSVKVSCKASGGTFSSYAISWVRQAPGQGLEWMGGIIPIFGTANYAQKFQGRVTITADESTSTAYMELSSLRSEDTAVYYCATLGRELSFDYWGQGTLVTVSS VL: DIVMTQSPSSLSASVGDRVTITCRASQSISSYLNWYQQKPGKAPKLLIYAASSLQSGVPSRFSGSGSGTDFTLTISSLQPEDFATYYCQQSYSESWTFGQGTTVDIK | no binding |
| A09 scFv (scFv, V domains shown) VH: QVQLVESGAEVKKPGASVKVSCKASGYTFTSYGISWVRQAPGQGLEWMGWISAYNGNTNYAQKLQGRVTMTTDTSTSTAYMELRSLRSDDTAVYYCAREWELLGGLDYWGQGTLVTVSS VL: QSALTQPASVSGSPGQSITISCTGTSSDVGGYNYVSWYQQHPGKAPKLMIYEVSNRPSGVSNRFSGSKSGNTASLTISGLQAEDEADYYCSSYTSSSTVVFGGGTKLTVL | no binding |
| G01 scFv (scFv, V domains shown, scFv as screened by ELISA) VH: QVQLVQSGAEVKKPGSSVKVSCKASGGTFSSYAISWVRQAPGQGLEWMGGIIPIFGTANYAQKFQGRVTITADESTSTAYMELSSLRSEDTAVYYCASITEGAFDYWGQGTLVTVSS VL: AIQLTQSPSTLSASVGDRVTITCRASRTVGSWLAWYQQKPGKAPKLLIYDASNLQSGVPSRFSGSGSGTEFTLTISSLQPDDLSTYYCQQYNSSPYTFGQGTKVEIK | no binding |
